- System: HSC2
- assay: relative IC50 (inflection point of fitted dose-response curve, CellTiter-Glo viability, 72 h; top asymptote may be below 50% inhibition); higher = less potent
readout type: relative IC50

Solved entries (count: 8):
compound: C[C@@H]1CCN(C(=O)CC#N)C[C@@H]1N(C)c1ncnc2[nH]ccc12
assay value: 742 nM
//
compound: CC(C)(C)Cn1c(N)nc2ccc(-c3[nH]c(C(C)(C)C)nc3-c3ccc(F)cc3)nc21
assay value: 474 nM
//
compound: C=CCc1cccc(/C=N/NC(=O)CN2CCN(Cc3ccccc3)CC2)c1O
assay value: 1370 nM
//
compound: NC(=O)c1ccc(I)c([N+](=O)[O-])c1
assay value: > 10000 nM
//
compound: CNC(=O)c1ccccc1Sc1ccc2c(/C=C/c3ccccn3)n[nH]c2c1
assay value: 694 nM
//
compound: O=NN(CCCl)C(=O)NC1CCCCC1
assay value: > 10000 nM
//
compound: CN[C@@H](C)C(=O)N[C@H]1CN(C(=O)CC(C)C)CC[C@H]2CC[C@@H](C(=O)NC(c3ccccc3)c3ccccc3)N2C1=O
assay value: > 10000 nM
//
compound: O=c1[nH]cc(F)c(=O)[nH]1
assay value: 3290 nM

Count: 5. Required value per item: relative IC50.
1. CCc1cnn2c(NCc3ccc[n+]([O-])c3)cc(N3CCCC[C@H]3CCO)nc12
2. Cc1c(CN2CCN(C(=O)[C@H](C)O)CC2)sc2c(N3CCOCC3)nc(-c3cnc(N)nc3)nc12
3. CCS(=O)(=O)c1cccc(-c2cc(C(=O)NC3CCN(C)CC3)c(C)c3[nH]c4ncc(C)cc4c23)c1
4. CCCS(=O)(=O)Nc1ccc(F)c(C(=O)c2c[nH]c3ncc(-c4ccc(Cl)cc4)cc23)c1F
5. CO[C@H]1C[C@@H]2CC[C@@H](C)[C@@](O)(O2)C(=O)C(=O)N2CCCC[C@H]2C(=O)O[C@H]([C@H](C)C[C@@H]2CC[C@@H](OP(C)(C)=O)[C@H](OC)C2)CC(=O)[C@H](C)/C=C(\C)[C@@H](O)[C@@H](OC)C(=O)[C@H](C)C[C@H](C)/C=C/C=C/C=C/1C

## Output
1: 13.6 nM; 2: 469 nM; 3: 72.5 nM; 4: 1460 nM; 5: 0.319 nM

Count: 7. Required value per item: relative IC50.
1. O=P1(NCCCl)OCCCN1CCCl (stereo not drawn) [Ifosfamide]
2. COc1ccc(S(=O)(=O)Nc2cccnc2Nc2ccc(O)cc2)cc1
3. C[C@]12O[C@H](C[C@]1(O)CO)n1c3ccccc3c3c4c(c5c6ccccc6n2c5c31)CNC4=O
4. Cn1c(=O)n(-c2ccc(C(C)(C)C#N)cc2)c2c3cc(-c4cnc5ccccc5c4)ccc3ncc21
5. CS(=O)(=O)c1ccc(C2=C(c3ccccc3)C(=O)OC2)cc1
6. COc1cc2c(N3CCN(C(=O)Nc4ccc(OC(C)C)cc4)CC3)ncnc2cc1OCCCN1CCCCC1
7. CO[C@H]1/C=C\C=C(/C)C(=O)NC2=CC(=O)C(NCCN(C)C)=C(C[C@@H](C)C[C@H](OC)[C@H](O)[C@@H](C)/C=C(\C)[C@@H]1OC(N)=O)C2=O

## Output
1. > 10000 nM
2. 476 nM
3. 24.9 nM
4. 8.32 nM
5. > 10000 nM
6. > 1000 nM
7. 134 nM
